B1: Homeobox protein SIX3, residues 212 to 262; numbered along this chain, O95343 (parent)
chain: CFKERTRSLLREWYLQDPYPNPSKKRELAQATGLTPTQVGNWFKNRRQRDR

# Variants of: B1
# Assay remarks: abundance fitness (aPCA) (normalised: wild type 0, dead -1); higher = more abundant; growth selection in yeast, the domain comes from the species named
# Measurement setup: Homo sapiens
Assign fulfilled whenever abundance fitness does not fall below -0.3; assign not fulfilled whenever it does.

Answered cases to consult:
T37A | fulfilled
P36A | fulfilled
E27V | not fulfilled
N41D | not fulfilled
G33R | not fulfilled
L28I | fulfilled
L34R | not fulfilled
K24P | not fulfilled

Please turn your attention to the following entry.
Confirm if abundance fitness reported for the variant `S23L` is -0.3 or above.
not fulfilled

Data credit: the Human Domainome abundance scans (Beltran et al. 2025)
